Biological target: Neuropeptide FF receptor 1 (Homo sapiens)
Sequence (Q9GZQ6 whole entry): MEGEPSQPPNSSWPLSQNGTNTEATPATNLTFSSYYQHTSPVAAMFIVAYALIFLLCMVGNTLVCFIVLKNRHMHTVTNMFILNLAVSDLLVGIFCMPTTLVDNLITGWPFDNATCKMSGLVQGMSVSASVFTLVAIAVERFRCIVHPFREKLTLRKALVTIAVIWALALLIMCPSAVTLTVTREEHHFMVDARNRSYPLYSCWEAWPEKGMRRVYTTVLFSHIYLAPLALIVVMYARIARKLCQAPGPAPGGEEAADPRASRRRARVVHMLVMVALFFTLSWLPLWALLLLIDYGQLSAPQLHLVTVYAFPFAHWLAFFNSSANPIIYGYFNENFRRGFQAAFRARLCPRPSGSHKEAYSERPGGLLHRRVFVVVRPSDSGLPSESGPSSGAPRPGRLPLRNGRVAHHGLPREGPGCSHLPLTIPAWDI
Test: Agonist activity at human NPFF1 receptor expressed in cells assessed as beta-galactosidase levels at […] after 5 days
Format: functional, cell-based
Activity calls are given as the source filed them. The calls are words filed in the database; no cut-off is given here.
observation.type: Efficacy

Below are worked cases with known answers.
- chemical.string: "N=C(N)N/N=C/c1ccc(-c2ccccc2C(F)(F)F)s1"
  measured.value: "44%"
- chemical.string: "Cc1ccccc1-c1ccc(/C=N/NC(=N)N)o1"
  measured.value: "55%"
- chemical.string: "Cn1c(/C=N/NC(=N)N)ccc1-c1ccccc1C(F)(F)F"
  measured.value: "36%"
- chemical.string: "N=C(N)N/N=C(\\c1ccccc1)c1ccc(Cl)c(Cl)c1"
  measured.value: "46%"
- chemical.string: "CC(C)c1ccccc1-c1ccc(/C=N/NC(=N)N)o1"
  measured.value: "62%"
- chemical.string: "N=C(N)N/N=C/c1ccc(-c2ccccc2C(F)(F)F)o1"
  measured.value: "55%"
- chemical.string: "N=C(N)N/N=C/c1ccc(Br)c(Br)c1"
  measured.value: "inactive"
- chemical.string: "C/C(=N\\N=C(N)N)c1ccc(Cl)c(Cl)c1"
  measured.value: "inactive"
- chemical.string: "C/C(=N\\NC(=N)N)c1ccc(Cl)c(C(F)(F)F)c1"
  measured.value: "inactive"
- chemical.string: "N=C(N)N/N=C/c1ccc(Cl)c(Cl)c1"
  measured.value: "18%"

Now consider the entry below.
Field Efficacy (system: Neuropeptide FF receptor 1 (Homo sapiens)) for entry N=C(N)N/N=C/c1ccc(Cl)c(C(F)(F)F)c1 = 46%
